system: A/Missouri/3/2006 (H1N1); test: microbe, parasite or virus in culture; type: cell-based; settings: Influenza A virus, MDCK, read-out: Cell Protection Assay EC50 ± SD
readout_name: pEC50
Numbers only, as −log10 of the molar value.

For O=C(O)[C@H]1C2CCC(CC2)C1Nc1nc(-c2c[nH]c3ncc(F)cc23)ncc1F (stereo partly shown) the molecule record lists pEC50 as 9.68

* * *

system: B/Russia/69; test: microbe, parasite or virus in culture; assay type: cell-based; conditions: Influenza B virus, MDCK, read-out: Cell Protection Assay EC50 ± SD
readout_name: EC50

Summary line: O=C(O)[C@H]1C2CCC(CC2)C1Nc1nc(-c2c[nH]c3ncc(F)cc23)ncc1F (stereo partly shown) [Compound (1)] , B/Russia/69, reported EC50 = > 10 nM

* * *

system: A/Virginia/ATCC2/2009 (H1N1); assay: microbe, parasite or virus in culture; assay type: cell-based; conditions: Influenza A virus, MDCK, read-out: Cell Protection Assay EC50 ± SD
readout_name: EC50
Form entry: enter the amount, then its unit.

Note to self: EC50 recorded for O=C(O)[C@H]1C2CCC(CC2)C1Nc1nc(-c2c[nH]c3ncc(F)cc23)ncc1F (stereo partly shown) [Compound (1)] was 1.9 nM

* * *

tested on: A/Chelyabinsk/1/2006 (H1N1); test: microbe, parasite or virus in culture; format: cell-based; conditions: Influenza A virus, MDCK, read-out: Cell Protection Assay EC50 ± SD
readout_name: EC50 (pM)
Numbers only, in pM.

response.value for O=C(O)[C@H]1C2CCC(CC2)C1Nc1nc(-c2c[nH]c3ncc(F)cc23)ncc1F (stereo partly shown) (field: EC50) = 700
